tested on: HCT-15 colon; assay: NCI-60 one-dose screen, 48 h (100 = growth as untreated, 0 = no growth, -100 = all killed); conditions: 10 µM unless noted
The panel holds about 83,000 compounds, 20% with a hit somewhere; the sample as a whole holds those more often.
Decide using growth: a value greater than or equal to 90% is condition met, a smaller one is condition not met.

Could you verify whether the entry COC(=O)[C@H](Cc1ccccc1)NNC(=O)c1csc([C@@H](C[C@H](C(C)C)N(C)C(=O)[C@@H](NC(=O)[C@H]2CCCCN2C)C2CC2)OC(C)=O)n1 shows growth of no less than 90%?
condition not met

Quick one: CC[C@H](C)[C@H](NC(=O)[C@H]1CCCCN1C)C(=O)N(C)[C@H](C[C@@H](OC(C)=O)c1nc(C(=O)N[C@@H](Cc2ccccc2)C[C@H](C)C(=O)OC)cs1)C(C)C
condition not met

Please give the result for COC(=O)CCC1=C(C)c2cc3[n-]c(cc4nc(cc5[n-]c(cc1n2)c(CCC(=O)OC)c5C)C=C4C)cc3C.[Cd+2] too.
condition not met

c1cc2c(c3c1CCNC3)OCO2 ?
condition met

Another compound to look at: C[C@]12CC[C@H]3[C@@H](CC4SC(N)=NC45C/C(=N/NC(N)=O)CC[C@]35C)[C@@H]1CCC2=O (stereo partly drawn)
condition not met

And the next one, CC[S][Hg][Cl] ?
condition met

Proceed to O=C(CCCCCCC(=O)Nc1ccc(N(CCCl)CCCl)cc1)NO
condition not met

* * *

test system: 786-0 renal; assay: NCI-60 one-dose screen, 48 h (100 = growth as untreated, 0 = no growth, -100 = all killed); conditions: 10 µM unless noted
The panel holds about 83,000 compounds, 20% with a hit somewhere; the sample as a whole holds those more often.
Please mark condition met if the recorded growth is equal to or greater than 90%, and condition not met if it falls below.

Is growth for CC[C@H](C)[C@H](NC(=O)c1nccn1C)C(=O)N(C)[C@H](C[C@@H](OC(C)=O)c1nc(C(=O)N[C@@H](Cc2ccccc2)C[C@H](C)C(=O)OC)cs1)C(C)C at or above 90%?
condition not met

What about this molecule? Cc1cc(N(CCCl)CCCl)ccc1C=Nc1ccccc1-c1ccccc1
condition not met

O=C(O)C(O)C(O)C1[O][Sb]([c]2ccc([N+](=O)[O-])cc2)[O]C1CO (stereo not given) , same question.
condition met

Queued: Nc1cc2nc3ccccc3nc2cc1N
condition met

* * *

Would you kindly list growth for each of these compounds?
test system: IGROV1 ovarian; assay: NCI-60 one-dose screen, 48 h (100 = growth as untreated, 0 = no growth, -100 = all killed); settings: 10 µM unless noted
About 83,000 compounds went through this panel and 20% of them were active in at least one assay; those are over-represented in the sample as a whole.
Just the number please, in %, no unit attached.

Record request: growth value, item Cc1cc(C)cc(Nc2nc3c(s2)CC[C@@]2(C)C3=CC[C@@H]3[C@@H]2CC[C@]2(C)C(=O)CC[C@@H]32)c1
85.2

How about CCCCCN(CCCCC)CC(O)c1cc(Cl)ccc1OC (centres undefined) ?
2.26

Entry to check: c1cnc2[nH]cc(-c3csc(-c4cn(CCCCN5CCCCC5)c5ccccc45)n3)c2c1
44.9

Try this compound next: CCCC[C@H](NC(=O)[C@H]1CCCCN1C)C(=O)N(C)[C@H](C[C@@H](OC(C)=O)c1nc(C(=O)N[C@@H](Cc2ccccc2)C[C@H](C)C(=O)OCC)cs1)C(C)C
24.4
